Test system: angiotensin-converting enzyme (ACE)
METHOD DESCRIPTION: ACE inhibitory effect in normotensive rats (inhibition of pressor response to angiotensin I)
Assay type: in vivo
CONDITION SET: 240 min. after administration; 1 mg/kg directly to the stomach; male Wistar rats, urethane anesthesia; AI/AII ratio
Method: ACE Inhibitory effect in normotensive rats Male Wistar rats weighing 200 to 400 g were anesthetized by the intraperitoneal injection of urethane (1.25 g/kg) and held in the supine position. The degree of inhibition of pressor response to angiotensin (A) I was determined using these rats. […] An ACE percent inhibition was calculated according to the equation indicated below. […]
Structures can show the parent of a compound that is named as a salt.
Decision: ACE Percent Inhibition, mean ± SD compared against 60%; not below it gives Met, below it gives Not met.

## Task // inclusive: ACE Percent Inhibition, mean ± SD at least 60%? input: CCCCCCCCSC[C@H](NC(C)C(=O)N1CCC[C@H]1C(=O)O)C(=O)OCC (stereo partly drawn)
## Result Not met

## Task Would you say CCCCCCCSC[C@H](NC(C)C(=O)N1CCC[C@H]1C(=O)OC)C(=O)OCC (stereo partly drawn) shows ACE Percent Inhibition, mean ± SD at minimum 60%?
## Result Met

## Task Answer whether ACE Percent Inhibition, mean ± SD of CCCCCCCSC[C@H](NC(C)C(=O)N1CCC[C@H]1C(=O)OCC)C(=O)OCC (stereo partly drawn) is greater than or equal to 60%.
## Result Met

## Task Given CCOC(=O)[C@H](CSCC1CCCCC1)NC(C)C(=O)N1CCC[C@H]1C(=O)O (stereo partly drawn) , state whether its ACE Percent Inhibition, mean ± SD is at least 60%.
## Result Not met

## Task Could you verify whether the entry CCCCCCCSC[C@H](NC(C)C(=O)N1CCC[C@H]1C(=O)OCc1ccccc1)C(=O)OCC (stereo partly drawn) shows ACE Percent Inhibition, mean ± SD of no less than 60%?
## Result Met

## Task # check: ACE Percent Inhibition, mean ± SD of COC(=O)[C@H](CCSC)NC(C)C(=O)N1CCC[C@H]1C(=O)O (stereo partly drawn) [Test Compound 5, hydrochloride, reference compound] is greater than or equal to 60%
## Result Not met

## Task # bool: ACE Percent Inhibition, mean ± SD of CCOC(=O)[C@H](CSCC=C(C)C)NC(C)C(=O)N1CCC[C@H]1C(=O)O (stereo partly drawn) >= 60%
## Result Not met

## Task Please tell me: is the compound CCCCCCCSC[C@H](NC(C)C(=O)N1CCC[C@H]1C(=O)O)C(=O)OCC (stereo partly drawn) at or over 60% in terms of ACE Percent Inhibition, mean ± SD?
## Result Met

## Task Does the reported ACE Percent Inhibition, mean ± SD for CCCCCCSC[C@H](NC(C)C(=O)N1CCC[C@H]1C(=O)O)C(=O)OCC (stereo partly drawn) fall at or above the 60% mark?
## Result Not met

----------
Structures can show the parent of a compound that is named as a salt.
Heads up, these molecules all have IC50 values measured for angiotensin-converting enzyme (ACE) (Oryctolagus cuniculus, UniProt P12822).
Give the quantity in nM, number only.

## Task Returns the measured IC50 for the input molecule. Input: CCCCCCSC[C@H](NC(C)C(=O)N1CCC[C@H]1C(=O)O)C(=O)O (single isomer, unassigned)
## Result 0.521

## Task Param item = CSCC[C@H](NC(C)C(=O)N1CCC[C@H]1C(=O)O)C(=O)O (stereo partly shown) [Test Compound 4, reference compound] ; retrieve measured IC50.
## Result 12.7

## Task Entry COC(=O)[C@H](CCSC)NC(C)C(=O)N1CCC[C@H]1C(=O)O (stereo partly shown) [Test Compound 5, hydrochloride, reference compound] has what IC50?
## Result 5240

## Task // query IC50 value for entry CCCCCSC[C@H](NC(C)C(=O)N1CCC[C@H]1C(=O)O)C(=O)O (stereo partly shown)
## Result 0.104
